Documented IC50 across a set of compounds
- Experimental target: c-kit (Homo sapiens, UniProt P10721)
- Construct: human Mo7e cells which endogenously express c-kit; endogenous in cells; host or cells: human Mo7e cells (promegakaryocytic leukemia line), stimulated with human recombinant SCF
- Sequence (P10721 26-976): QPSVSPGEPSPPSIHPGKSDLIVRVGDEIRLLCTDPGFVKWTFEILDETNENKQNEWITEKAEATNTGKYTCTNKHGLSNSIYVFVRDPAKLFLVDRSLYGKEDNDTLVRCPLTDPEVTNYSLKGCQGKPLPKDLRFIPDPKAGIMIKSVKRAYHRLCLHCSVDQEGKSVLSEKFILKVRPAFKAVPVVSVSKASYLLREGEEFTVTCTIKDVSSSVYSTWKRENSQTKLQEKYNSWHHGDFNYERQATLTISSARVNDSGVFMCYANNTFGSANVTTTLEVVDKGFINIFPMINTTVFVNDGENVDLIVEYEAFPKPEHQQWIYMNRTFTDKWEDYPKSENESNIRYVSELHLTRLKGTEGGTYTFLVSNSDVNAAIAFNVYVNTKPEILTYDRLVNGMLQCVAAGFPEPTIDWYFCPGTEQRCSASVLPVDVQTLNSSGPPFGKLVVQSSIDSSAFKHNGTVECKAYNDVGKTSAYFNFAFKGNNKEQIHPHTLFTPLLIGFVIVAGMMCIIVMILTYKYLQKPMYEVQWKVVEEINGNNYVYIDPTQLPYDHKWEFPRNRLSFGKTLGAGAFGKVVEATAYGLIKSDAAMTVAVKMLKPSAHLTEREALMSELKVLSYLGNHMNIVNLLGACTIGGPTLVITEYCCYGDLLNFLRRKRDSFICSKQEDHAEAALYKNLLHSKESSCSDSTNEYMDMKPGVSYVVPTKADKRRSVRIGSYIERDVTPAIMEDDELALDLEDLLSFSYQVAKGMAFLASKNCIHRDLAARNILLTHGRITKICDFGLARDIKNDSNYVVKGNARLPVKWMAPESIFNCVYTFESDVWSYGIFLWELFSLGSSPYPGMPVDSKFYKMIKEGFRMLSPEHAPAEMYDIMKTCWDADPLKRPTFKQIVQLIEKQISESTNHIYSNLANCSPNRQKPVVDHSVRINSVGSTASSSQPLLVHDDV
- Protocol text: Mo7e cell proliferation assay (SCF dependent proliferation)
- Assay type: cell-based
- Measurement conditions: Table 1; human Mo7e cells stimulated with SCF, 48 hours, CellTiter Glo; 1% FBS; read-out: c-kit (Mo7e)
Give the value in nM but do not write nM after it.

Compound: COC(=O)N1CC(c2nc(-c3ccc(C)c(NC(=O)c4cnc5cc(-c6cc[nH]n6)ccn45)c3)no2)C1
Experimental target: c-kit (Homo sapiens, UniProt P10721)
Reported property: IC50
Val: 13

Compound: Cc1ccc(-c2noc(C3CCCCO3)n2)cc1NC(=O)c1cnc2ccccn12 (stereo not shown)
Experimental target: c-kit (Homo sapiens, UniProt P10721)
Reported property: IC50
Val: 42

Compound: Cc1ccc(Nc2noc([C@@H]3CCCO3)n2)cc1NC(=O)c1cnc2ccccn12
Experimental target: c-kit (Homo sapiens, UniProt P10721)
Reported property: IC50
Val: 6

Q: // IC50 lookup, key: Cc1ccc(-c2noc(CN3CC(F)(F)C(F)(F)C3)n2)cc1NC(=O)c1cnc2ccccn12
A: 13
